- Assayed Target: DDB1 (Homo sapiens, UniProt Q16531)
- Sequence (Q16531 2-1140): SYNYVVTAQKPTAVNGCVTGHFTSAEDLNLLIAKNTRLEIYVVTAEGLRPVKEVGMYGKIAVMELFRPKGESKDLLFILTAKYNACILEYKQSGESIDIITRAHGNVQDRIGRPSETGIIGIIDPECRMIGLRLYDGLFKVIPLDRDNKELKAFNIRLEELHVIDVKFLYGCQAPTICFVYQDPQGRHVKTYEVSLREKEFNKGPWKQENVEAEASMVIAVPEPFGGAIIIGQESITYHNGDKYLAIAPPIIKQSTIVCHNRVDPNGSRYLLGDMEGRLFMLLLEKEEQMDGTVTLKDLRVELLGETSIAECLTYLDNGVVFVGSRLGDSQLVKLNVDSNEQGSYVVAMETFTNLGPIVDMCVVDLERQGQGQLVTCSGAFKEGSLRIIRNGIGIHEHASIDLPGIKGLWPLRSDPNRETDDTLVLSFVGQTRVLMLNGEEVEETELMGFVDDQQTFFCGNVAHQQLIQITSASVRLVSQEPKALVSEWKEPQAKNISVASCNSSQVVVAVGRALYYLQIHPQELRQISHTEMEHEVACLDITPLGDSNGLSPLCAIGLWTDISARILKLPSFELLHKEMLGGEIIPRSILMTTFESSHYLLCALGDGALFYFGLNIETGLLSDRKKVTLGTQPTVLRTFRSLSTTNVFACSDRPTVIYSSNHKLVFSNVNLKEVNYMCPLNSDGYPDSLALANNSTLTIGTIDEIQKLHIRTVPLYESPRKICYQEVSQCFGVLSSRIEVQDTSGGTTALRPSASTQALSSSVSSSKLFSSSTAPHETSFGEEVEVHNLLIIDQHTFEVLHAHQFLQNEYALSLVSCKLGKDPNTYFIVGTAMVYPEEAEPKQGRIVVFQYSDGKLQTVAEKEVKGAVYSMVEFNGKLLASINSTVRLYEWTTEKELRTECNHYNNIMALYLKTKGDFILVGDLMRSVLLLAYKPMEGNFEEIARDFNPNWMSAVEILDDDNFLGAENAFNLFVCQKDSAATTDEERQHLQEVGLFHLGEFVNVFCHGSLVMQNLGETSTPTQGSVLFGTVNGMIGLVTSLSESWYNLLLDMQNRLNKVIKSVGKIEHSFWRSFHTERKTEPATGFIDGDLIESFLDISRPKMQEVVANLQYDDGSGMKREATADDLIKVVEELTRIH
- Protocol Text: SPR
- Assay type: binding
- Run Parameters: biotinylated protein immobilised; pH […] °C, […] DMSO; site at W1047, Y1114
Recorded Endpoint: Kd (µM)
Answers are plain numbers, in µM.

Hello, I am looking for reported Kd with DDB1 (Homo sapiens, UniProt Q16531) for CCOc1cccc([C@@H]2CC(=O)Nc3c2c(C)nn3-c2ccc3nncn3n2)c1 [(S)-XS381952] . Could you help?
2

====

- Assayed Target: UniProtKB Q16531
- Protocol Text: SPR
- Type: binding
- Run Parameters: read-out: estimated KD; biotinylated protein immobilised; pH […] °C, […] DMSO
Recorded Endpoint: Kd

Name the recorded Kd for CCOc1cccc([C@H]2CC(=O)Nc3c2c(C)nn3-c2ccc3nncn3n2)c1 [(R)-XS381952] .
> 73 µM

Just for reference, paper PMC11785093 is where these values come from.
